METHOD SUMMARY: Pharmacokinetic experiment in mice (single intragastric dose, 20 mg/kg)
PARTICULARS: male, ICR, mouse, plasma, po

{"COMPOUND": "CSc1cc(C)[nH]c(=O)c1CNC(=O)c1cc(Cl)c2c(c1C)OC(C)([C@H]1CC[C@@H](N[C@H]3C[C@H](F)C3)CC1)O2 (single isomer, unassigned) [Compound 34, isomer 1]", "half-life": "3.37 h"}

====

METHOD SUMMARY: Pharmacokinetic experiment in monkeys
Format: in vivo
PARTICULARS: male, cynomolgus monkey, plasma, IV 3 mg/kg
REPORTED PROPERTY: half-life (h)

{"COMPOUND": "[2H]C([2H])(NC(=O)c1cc(Cl)c2c(c1C)OC(C)(C1CCC(NC3COC3)CC1)O2)c1c(SC)cc(C)[nH]c1=O (single isomer, unassigned) [Compound 59, isomer 2]", "UNIT OF MEASUREMENT": "h", "OBSERVED VALUE": 2.68}

====

METHOD SUMMARY: Pharmacokinetic experiment in monkeys
Format: in vivo
PARTICULARS: male, cynomolgus monkey, plasma, IV 3 mg/kg
REPORTED PROPERTY: AUC (ng·h/mL)

{"MOLECULE": "[2H]C([2H])(NC(=O)c1cc(Cl)c2c(c1C)OC(C)(C1CCC(NC3COC3)CC1)O2)c1c(SC)cc(C)[nH]c1=O (single isomer, unassigned) [Compound 59, isomer 2]", "OBSERVED VALUE": 1570}

====

METHOD SUMMARY: Pharmacokinetic experiment in mice (intravenous 5 mg/kg or intragastric 30 mg/kg)
Assay type: in vivo
PARTICULARS: male, ICR, mouse, plasma, po, 30 mg/kg, PO 30 mg/kg
half-life listing for selected compounds.

{"COMPOUND": "[2H]C([2H])(NC(=O)c1cc(Cl)c2c(c1C)OC(C)([C@H]1CC[C@@H](NC3CC(F)(F)C3)CC1)O2)c1c(SC)cc(C)[nH]c1=O (single isomer, unassigned) [Compound 44, isomer 1]", "UNIT OF MEASUREMENT": "h", "half-life": 1.27}
{"COMPOUND": "Cc1cc(C)c(CNC(=O)c2cc(Cl)c3c(c2C)O[C@@](C)([C@H]2CC[C@H](N(C)C)CC2)O3)c(=O)[nH]1 [Compound I-2, Valemetostat, reference compound]", "UNIT OF MEASUREMENT": "h", "half-life": 3.05}
{"COMPOUND": "[2H]C([2H])(NC(=O)c1cc(Cl)c2c(c1C)OC(C)(C1CCN(CC3CC3)CC1)O2)c1c(SC)cc(C)[nH]c1=O (stereo not drawn)", "UNIT OF MEASUREMENT": "h", "half-life": 0.934}

====

METHOD SUMMARY: Pharmacokinetic experiment in monkeys
Format: in vivo
PARTICULARS: male, cynomolgus monkey, plasma, PO 15 mg/kg
Description: Experimental animal: twelve cynomolgus monkeys, 2.4-5.9 kg, male, 3-5.5 years old, purchased from Suzhou Xishan Zhongke Laboratory Animal Co., Ltd, with the production license number of SCXK(SU) 2018-0001. Before and after the administration, 1.0 mL of blood was taken from the front and rear limb veins of the animals, and placed in an EDTAK2 centrifuge tube. […] Before analysis and detection, all plasma samples were stored at −80° C.

{"COMPOUND": "[2H]C([2H])(NC(=O)c1cc(Cl)c2c(c1C)OC(C)(C1CCC(NC3COC3)CC1)O2)c1c(SC)cc(C)[nH]c1=O (single isomer, unassigned) [Compound 59, isomer 2]", "UNIT OF MEASUREMENT": "h", "half-life": 5.11}
